# Target: benzodiazepine receptors
# Method summary: benzodiazepine receptors test in vitro (displacement of 3H-Diazepam from rat brain receptors)
Measurement type: Ki (µM)
Please reply with the bare figure in µM and do not write the unit itself.

- Compound: "Cc1c2c(cn1C)NC(=O)CN=C2c1ccccc1 [IX, reference compound]"
  Target: "benzodiazepine receptors"
  Ki (µM): 0.097

Return the recorded Ki value; entry: Cc1c2c(cn1C)NC(=O)C(O)N=C2c1ccccc1 (stereo not drawn)
0.0459

Write down Ki measured for item Cc1c2c(cn1C)N(C)C(=O)C(O)N=C2c1ccccc1Cl (stereo not drawn)
0.00282
